Listing of entries alongside the reported EC50 (pM).
Target: SARS-CoV-2 spike protein (full length, wild type) (SARS-CoV-2, UniProt P0DTC2 14-1273)
Test: cell-based or functional assay
OBSERVABLE: EC50 (pM)

[[record]]
binder = "SARS2-17F2_f3 (antibody, V domains shown, also called antibody number 18) VH: QVQLVQSGAEVKRPGASVKVSCKASGYTFTSYDITWVRQATGQGLEWMGWMSPDSGNTGYAQRFQGRVTMTRNTSISTAYMELSSLRSEDTAVYYCARFGYGSGALDYYYYGLDVWGQGTTVTVSS VL: EIVLTQSPGTLSLSPGERATLSCRASQSVRSSHLAWYQQKPGQAPRLLIYGASSRATGIPDRFSGSGSGTDFTLTISRLEPEDFAVYYCQQYNSSPITFGQGTRLEIK"
observable = "EC50 (pM)"
test_value = 151

[[record]]
binder = "SARS2-11D5_f3 (antibody, V domains shown, also called antibody number 12) VH: EVQLVETGGGLIQPGGSLRLSCAASGITVSSNYMSWVRQAPGKGLEWVSVIYSGGSTYYADSVKGRFTISRDNSKNTLYLQMNSLRAEDTAVYYCARDLAVAGAFDIWGQGTMVTVSL VL: DIQLTQSPSFLSASVGDRVTITCRASQGISSYLAWYQQKPGKAPKVLIYAASTLQSGVPSRFSGSGSGTEFTLTISSLQPEDFATYYCQQLNSYPPSTFGQGTKLEIK"
observable = "EC50 (pM)"
test_value = 440


Source: patent US20230391856A1
